# Species: Cavia porcellus
# method summary: Selectivity was expressed as the ratio is Ki of adenosine A1 receptor to that of adenosine A2 receptor
// thresholds for Selectivity ratio classes: category 1: < 0.8; category 2: ≥ 0.8 and < 3; category 3: ≥ 3

{"smiles record": "C=CCn1cnc2c1c(=O)n(C)c(=O)n2C", "class name": "category 3"}
{"smiles record": "C=CCn1c(=O)c2c(ncn2C)n(CC=C)c1=O", "class name": "category 3"}
{"smiles record": "C=CCn1cnc2c1c(=O)n(CCC)c(=O)n2CCC", "class name": "category 2"}
{"smiles record": "CCCn1c(=O)c2c(ncn2Cc2ccccc2)n(CCC)c1=O", "class name": "category 1"}
{"smiles record": "Cn1c(=O)n(CCO)c(=O)c2[nH]cnc21", "class name": "category 2"}
{"smiles record": "CCCn1c(=O)c2c(ncn2CCC)n(CCC)c1=O", "class name": "category 2"}
{"smiles record": "Cn1c(=O)c2c(ncn2Cc2ccccc2)n(C)c1=O", "class name": "category 1"}
{"smiles record": "CC(C)Cn1c(=O)c2nc[nH]c2n(CC(C)C)c1=O", "class name": "category 1"}
{"smiles record": "CC(C)n1c(=O)n(C)c(=O)c2[nH]cnc21", "class name": "category 2"}
